Reference source: patent US20100068208A1

# Test Target: T1, TGR12-GFP (fused protein of human TGR12 and GFP, encoded by the DNA of SEQ ID NO: 31), stably expressed on … (human, UniProt Q96LB1 1-330)
# T1 sequence: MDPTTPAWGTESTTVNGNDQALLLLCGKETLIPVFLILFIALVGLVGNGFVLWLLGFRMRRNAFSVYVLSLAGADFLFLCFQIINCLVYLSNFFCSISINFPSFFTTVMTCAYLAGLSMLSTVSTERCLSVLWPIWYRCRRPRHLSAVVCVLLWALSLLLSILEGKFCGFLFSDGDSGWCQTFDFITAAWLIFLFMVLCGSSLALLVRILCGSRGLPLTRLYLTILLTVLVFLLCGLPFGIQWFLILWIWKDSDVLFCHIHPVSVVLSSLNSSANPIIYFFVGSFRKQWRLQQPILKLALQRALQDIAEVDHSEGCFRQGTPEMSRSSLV
# Assay Info: cell-based or functional assay
Where no end group is shown, it is not given here.
// reported maximum activity in the calcium increasing effect (FLIPR), CHO-TGR12, at 3000 nM for each item listed
Value Kind: maximum activity in the calcium increasing effect (FLIPR), CHO-TGR12, at 3000 nM (fluorescence intensity)

binder="DRMPCRNFFWKTFSSCK (peptide, UniProt O00230 89-105, looked up, not fully specified; ends and bridges not checked) [human cortistatin-17]" quantitative_result=23600
binder="HSDGIFTDSYSRYRKQMAVKKYLAAVL (peptide, UniProt P18509 132-158, looked up, not fully specified; ends and bridges not checked, domain: PACAP-27) [human PACAP27 (pituitary adenylate cyclase activating polypeptide 27)]" quantitative_result=23700
binder="HSDAVFTDNYTRLRKQMAVKKYLNSILN (peptide, UniProt P01282 125-152, looked up, not fully specified; ends and bridges not checked, domain: VIP; also called vasoactive intestinal peptide) [human VIP (vasoactive intestinal polypeptide)]" quantitative_result=24000
binder="HSDGIFTDSYSRYRKQMAVKKYLAAVLGKRYKQRVKNK (peptide, UniProt P18509 132-169, looked up, not fully specified; ends and bridges not checked, domain: PACAP-38) [human PACAP38 (pituitary adenylate cyclase activating polypeptide 38)]" quantitative_result=23300
